Target: wheat germ agglutinin (WGA) (Triticum aestivum, UniProt P10969)
Sequence (P10969 1-171 limits assumed): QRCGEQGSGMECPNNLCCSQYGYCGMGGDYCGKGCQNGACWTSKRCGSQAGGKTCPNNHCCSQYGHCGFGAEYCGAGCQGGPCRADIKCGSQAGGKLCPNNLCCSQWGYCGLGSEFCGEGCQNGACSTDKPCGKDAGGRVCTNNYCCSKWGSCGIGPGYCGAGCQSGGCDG
Test: enzyme-linked lectin assay (ELLA): inhibition of binding of HRP-labeled WGA to covalently immobilized GlcNAc
Set-up: species or system Triticum vulgaris
Settings: inhibition of binding of HRP-labeled WGA to covalently immobilized GlcNAc; read-out: IC50
MEASURED_ATTRIBUTE: IC50 (µM)

{"columns": ["MOLECULE", "MEASURED_ATTRIBUTE", "QUANTITATIVE_READOUT"],
 "data": [
  ["CC(=O)N[C@H]1[C@H](OCc2cn(Cc3ccc(Cn4cc(CO[C@@H]5O[C@H](CO)[C@@H](O[C@@H]6O[C@H](CO)[C@@H](O)[C@H](O)[C@H]6NC(C)=O)[C@H](O)[C@H]5NC(C)=O)nn4)cc3)nn2)O[C@H](CO)[C@@H](O[C@@H]2O[C@H](CO)[C@@H](O)[C@H](O)[C@H]2NC(C)=O)[C@@H]1O [C3]", "IC50", 1.9],
  ["CC(=O)N[C@H]1[C@H](OCc2cn(Cc3cccc(Cn4cc(CO[C@@H]5O[C@H](CO)[C@@H](O[C@@H]6O[C@H](CO)[C@@H](O)[C@H](O)[C@H]6NC(C)=O)[C@H](O)[C@H]5NC(C)=O)nn4)c3)nn2)O[C@H](CO)[C@@H](O[C@@H]2O[C@H](CO)[C@@H](O)[C@H](O)[C@H]2NC(C)=O)[C@@H]1O [C2]", "IC50", 1.3]
]}

P = CC(=O)N[C@@H]1[C@@H](O)[C@H](O)[C@@H](CO)O[C@H]1O [GlcNAc, N-acetylglucosamine, reference compound]
Q = CC(=O)N[C@H]1[C@H](O[C@H]2[C@H](O)[C@@H](NC(C)=O)C(O)O[C@@H]2CO)O[C@H](CO)[C@@H](O)[C@@H]1O (stereo partly shown) [N,N'-diacetylchitobiose, reference compound]
Exam item: Quick check, higher IC50 between P and Q ? Pick one and reply with its label.
Marked response: P

Values from paper PMC3388869
